- Target Desc: T1, recombinant biotinylated CD71 extracellular domain (Sino Biologics) with an N-terminal 6His tag (human, UniProt P02786 89-760, biotinylated (sites not given))
- T1 construct: extracellular domain; also called hCD71; huCD71
- T1 sequence (P02786 other isoform, or with tags, fused parts or gaps): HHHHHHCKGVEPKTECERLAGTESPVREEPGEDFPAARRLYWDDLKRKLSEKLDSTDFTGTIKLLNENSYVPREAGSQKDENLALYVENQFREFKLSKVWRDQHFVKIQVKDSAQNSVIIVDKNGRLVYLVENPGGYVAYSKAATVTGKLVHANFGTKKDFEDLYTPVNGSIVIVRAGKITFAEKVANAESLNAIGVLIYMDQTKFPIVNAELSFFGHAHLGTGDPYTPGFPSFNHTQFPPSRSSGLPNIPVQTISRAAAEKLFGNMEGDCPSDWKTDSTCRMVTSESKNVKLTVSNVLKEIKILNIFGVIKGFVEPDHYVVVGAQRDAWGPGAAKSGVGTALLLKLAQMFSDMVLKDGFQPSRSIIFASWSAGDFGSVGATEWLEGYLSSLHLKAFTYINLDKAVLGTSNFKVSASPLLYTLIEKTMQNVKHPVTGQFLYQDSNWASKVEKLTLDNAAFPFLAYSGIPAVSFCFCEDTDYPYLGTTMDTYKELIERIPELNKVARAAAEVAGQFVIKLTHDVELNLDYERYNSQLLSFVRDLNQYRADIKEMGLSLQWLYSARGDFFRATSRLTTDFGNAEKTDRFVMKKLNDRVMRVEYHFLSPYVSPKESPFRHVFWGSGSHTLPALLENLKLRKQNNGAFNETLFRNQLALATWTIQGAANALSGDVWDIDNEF
- Experiment Notes: screening ELISA, ratio
Property Label: hCD71:HSA
Give bare numbers.

Reference set (3 entries):
SEQ ID NO 273 (designed binder, FN3 domain) MLPAPKNLVVSRVTEDSARLSWTAPDAAFDSFTIFKDGEAIVLTVPGSERSYDLTGLKPGTEYYVYIYGVKGGYPSKPLSAIFTT : 508
SEQ ID NO 263 (designed binder, FN3 domain) MLPAPKNLVVSRVTEDSARLSWTAPDAAFDSFFIGYLEPQPPGEAIVLTVPGSERSYDLTGLKPGTEYNVTIQGVKGGFPSMPLSAISTT : 92
SEQ ID NO 128 (designed binder, FN3 domain) MLPAPKNLVVSRVTEDSARLSWTAPDAAFDSFIINYIEIVQYGEAIVLTVPGSERSYDLTGLKPGTEYPESIWGVKGGGASSPLSAIFTT : 204

Dear colleague, could you please provide hCD71:HSA for the binders listed below?
1. SEQ ID NO 112 (designed binder, FN3 domain) MLPAPKNLVVSRVTEDSARLSWTAPDAAFDSFFIAYFEFANPGEAIVLTVPGSERSYDLTGLKPGTEYKVVIQGVKGGTPSEPLSAISTT
2. SEQ ID NO 217 (designed binder, FN3 domain) MLPAPKNLVVSRVTEDSARLSWTAPDAAFDSFIIEYWEWYFAGEAIVLTVPGSERSYDLTGLKPGTEYTVWITGVKGGTWSEPLSAIFTT
3. SEQ ID NO 183 (designed binder, FN3 domain) MLPAPKNLVVSRVTEDSARLSWTAPDAAFDSFLIPYAETSPSGEAIVLTVPGSERSYDLTGLKPGTEYSVLIHGVKGGRPSNPLVAAFTT
4. SEQ ID NO 108 (designed binder, FN3 domain) MLPAPKNLVVSRVTEDSARLSWTAPDAAFDSFTIIYGEVNPYGEAIVLTVPGSERSYDLTGLKPGTEYDVFIEGVKGGHLSWPLSAIFTT
5. SEQ ID NO 211 (designed binder, FN3 domain) MLPAPKNLVVSRVTEDSARLSWTAPDAAFDSFWINYYEAQPDGEAIVLTVPGSERSYDLTGLKPGTEYDVEIAGVKGGTASLPLSAIFTT
6. SEQ ID NO 189 (designed binder, FN3 domain) MLPAPKNLVVSRVTEDSARLSWTAPDAAFDSFHEWVYFGEAIVLTVPGSERSYDLTGLKPGTEYFVDIWGVKGGTVSKPLSAIFTT

[514, 332, 161, 2450, 334, 29]
